Form field: GI50 at 72 h (one value per entry).
test: Cytotoxicity against ABCB1 over expressing human A2780 ADR cells assessed as reduction in cell viability measured after 72 hrs by MTT assay
Format: ADME, cell-based
particulars: ABCB1 overexpressing A2780 ADR cells
Use µM as the unit, but write only the number.

Example entries and their recorded answers appear below.
{"columns": ["item smiles", "GI50 at 72 h [µM]"],
 "data": [
  ["CC(C)Nc1cc(Nc2ccc(C#N)cc2)nc(-c2ccccc2)n1", 8.09],
  ["N#Cc1ccc(Nc2cc(Nc3ccc(O)cc3)nc(-c3ccccc3)n2)cc1", 9.21],
  ["CCCNc1cc(Nc2ccc(C#N)cc2)nc(-c2ccccc2)n1", 12.3],
  ["N#Cc1ccc(Nc2cc(Nc3ccccc3O)nc(-c3ccccc3)n2)cc1", 9.96]
]}

# input for lookup
Identify GI50 at 72 h associated with the molecule `N#Cc1ccc(Nc2cc(Nc3cccc(O)c3)nc(-c3ccccc3)n2)cc1`
5.91

====

study system: ABCG2 (Homo sapiens, UniProt Q9UNQ0)
Sequence (Q9UNQ0 whole entry): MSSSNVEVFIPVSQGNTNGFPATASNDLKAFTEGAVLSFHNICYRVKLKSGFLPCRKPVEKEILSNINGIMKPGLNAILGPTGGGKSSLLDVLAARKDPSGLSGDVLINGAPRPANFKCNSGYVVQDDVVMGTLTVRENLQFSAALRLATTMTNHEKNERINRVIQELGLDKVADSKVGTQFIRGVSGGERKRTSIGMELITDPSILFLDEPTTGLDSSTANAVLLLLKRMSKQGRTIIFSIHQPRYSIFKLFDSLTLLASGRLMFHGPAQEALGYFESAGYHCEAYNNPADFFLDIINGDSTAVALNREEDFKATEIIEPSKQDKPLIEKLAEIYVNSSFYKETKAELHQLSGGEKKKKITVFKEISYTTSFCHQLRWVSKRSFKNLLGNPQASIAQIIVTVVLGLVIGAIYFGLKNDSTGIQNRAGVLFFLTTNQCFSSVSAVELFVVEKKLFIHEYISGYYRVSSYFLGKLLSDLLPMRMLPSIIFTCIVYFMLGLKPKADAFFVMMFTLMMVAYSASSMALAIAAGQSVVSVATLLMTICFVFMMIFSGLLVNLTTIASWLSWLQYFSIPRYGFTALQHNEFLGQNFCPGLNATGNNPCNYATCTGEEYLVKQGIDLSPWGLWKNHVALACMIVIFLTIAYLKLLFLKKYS
test: Inhibition of ABCG2 (unknown origin) expressed in MDCK-II cells assessed as reduction in pheophorbide A efflux measured after 2 hrs by flow cytometry relative to Ko143
Assay type: cell-based
particulars: MDCK-II cells expressing ABCG2, probe pheophorbide A, read-out: Imax
measurement kind: Emax at 2 h (%)
Use % as the unit, but write only the number.

Example entries and their recorded answers appear below.
{"columns": ["item smiles", "Emax at 2 h [%]"],
 "data": [
  ["N#Cc1ccc(Nc2cc(Nc3ccc(O)cc3)nc(-c3ccccc3)n2)cc1", 76],
  ["CC(C)Nc1cc(Nc2ccc(C#N)cc2)nc(-c2ccccc2)n1", 101],
  ["N#Cc1ccc(Nc2cc(NCCCCc3ccccc3)nc(-c3ccccc3)n2)cc1", 61],
  ["N#Cc1ccc(Nc2cc(NCCCc3ccccc3)nc(-c3ccccc3)n2)cc1", 61],
  ["N#Cc1ccc(Nc2cc(Nc3cccc(O)c3)nc(-c3ccccc3)n2)cc1", 66]
]}

Identify Emax at 2 h associated with the compound `N#Cc1ccc(Nc2cc(-c3ccccc3)nc(-c3ccccc3)n2)cc1`
100

====

test: Cytotoxicity against ABCG2 overexpressing MDCK-II cells assessed as reduction in cell viability measured after 72 hrs by MTT assay
Format: ADME, cell-based, Canis lupus familiaris
particulars: dog
Label true (1) when GI50 at 72 h < 8 µM; otherwise false (0).

// known answers, use as guide
{"columns": ["item smiles", "label class"],
 "data": [
  ["N#Cc1ccc(Nc2cc(Nc3cccc(O)c3)nc(-c3ccccc3)n2)cc1", "true (1)"],
  ["N#Cc1ccc(Nc2cc(NCc3ccccn3)nc(-c3ccccc3)n2)cc1", "false (0)"],
  ["N#Cc1ccc(Nc2cc(NCc3ccncc3)nc(-c3ccccc3)n2)cc1", "false (0)"]
]}

Turning to the following compound.
Please indicate whether the reported GI50 at 72 h of `N#Cc1ccc(Nc2cc(Nc3ccc(O)cc3)nc(-c3ccccc3)n2)cc1` is strictly below 8 µM.
true (1)

====

test: Cytotoxicity against ABCG2 overexpressing MDCK-II cells assessed as reduction in cell viability measured after 72 hrs by MTT assay
Assay type: ADME, cell-based, Canis lupus familiaris
particulars: dog
Label rule met when GI50 at 72 h < 9 µM; otherwise rule not met.

// known answers, use as guide
{"columns": ["item smiles", "label class"],
 "data": [
  ["N#Cc1ccc(Nc2cc(Nc3ccccc3)nc(-c3ccccc3)n2)cc1", "rule met"],
  ["N#Cc1ccc(Nc2cc(NCc3ccccc3)nc(-c3ccccc3)n2)cc1", "rule not met"],
  ["CCCNc1cc(Nc2ccc(C#N)cc2)nc(-c2ccccc2)n1", "rule met"],
  ["N#Cc1ccc(Nc2cc(NCc3cccnc3)nc(-c3ccccc3)n2)cc1", "rule met"],
  ["CNc1cc(Nc2ccc(C#N)cc2)nc(-c2ccccc2)n1", "rule not met"],
  ["N#Cc1ccc(Nc2cc(Nc3ccccc3O)nc(-c3ccccc3)n2)cc1", "rule met"],
  ["N#Cc1ccc(Nc2cc(NCCCCc3ccccc3)nc(-c3ccccc3)n2)cc1", "rule not met"],
  ["N#Cc1ccc(Nc2cc(NCCCc3ccccc3)nc(-c3ccccc3)n2)cc1", "rule met"],
  ["N#Cc1ccc(Nc2cc(-c3ccccc3)nc(-c3ccccc3)n2)cc1", "rule not met"],
  ["CC(C)Nc1cc(Nc2ccc(C#N)cc2)nc(-c2ccccc2)n1", "rule met"]
]}

Turning to the following molecule.
Please indicate whether the reported GI50 at 72 h of `CCCCNc1cc(Nc2ccc(C#N)cc2)nc(-c2ccccc2)n1` is strictly below 9 µM.
rule met

====

Form field: GI50 at 72 h (one value per entry).
test: Cytotoxicity against human A2780 cells assessed as reduction in cell viability measured after 72 hrs by MTT assay
Use µM as the unit, but write only the number.

{"columns": ["item smiles", "endpoint value"],
 "data": [
  ["CCCNc1cc(Nc2ccc(C#N)cc2)nc(-c2ccccc2)n1", 15.1]
]}

# input for lookup
Identify GI50 at 72 h associated with the compound `CC(C)Nc1cc(Nc2ccc(C#N)cc2)nc(-c2ccccc2)n1`
13.3

====

test: Cytotoxicity against ABCB1 over expressing human A2780 cells assessed as reduction in cell viability measured after 72 hrs by MTT assay
Assay type: ADME, cell-based
particulars: in the assay text read “human A2780 cells” for “ABCB1 over expressing human A2780 cells”
measurement kind: GI50 at 72 h
A complete answer gives the number followed by the unit.

{"columns": ["item smiles", "measurement kind", "endpoint value"],
 "data": [
  ["N#Cc1ccc(Nc2cc(Nc3ccccc3O)nc(-c3ccccc3)n2)cc1", "GI50 at 72 h", "9.07 µM"],
  ["N#Cc1ccc(Nc2cc(Nc3ccc(O)cc3)nc(-c3ccccc3)n2)cc1", "GI50 at 72 h", "8.02 µM"]
]}

Identify GI50 at 72 h associated with the compound `N#Cc1ccc(Nc2cc(Nc3cccc(O)c3)nc(-c3ccccc3)n2)cc1`
3.55 µM

====

study system: Broad substrate specificity ATP-binding cassette transporter ABCG2 (Homo sapiens, UniProt Q9UNQ0)
test: Inhibition of ABCG2 (unknown origin) expressed in MDCK-II cells assessed as reduction in pheophorbide A efflux measured after 2 hrs by flow cytometry
Form field: log10 IC50 (one value per entry).
The base-10 logarithm of IC50, taken with IC50 in µM, is what appears here.

Example entries and their recorded answers appear below.
{"columns": ["item smiles", "log10 IC50"],
 "data": [
  ["CC(C)Nc1cc(Nc2ccc(C#N)cc2)nc(-c2ccccc2)n1", -0.12],
  ["N#Cc1ccc(Nc2cc(NCc3ccccc3)nc(-c3ccccc3)n2)cc1", -0.55],
  ["N#Cc1ccc(Nc2cc(Nc3ccccc3O)nc(-c3ccccc3)n2)cc1", -0.65]
]}

Identify log10 IC50 associated with the compound `CCCNc1cc(Nc2ccc(C#N)cc2)nc(-c2ccccc2)n1`
-0.53

Identify log10 IC50 associated with the compound `N#Cc1ccc(Nc2cc(Nc3ccccc3)nc(-c3ccccc3)n2)cc1`
-0.77

Identify log10 IC50 associated with the compound `N#Cc1ccc(Nc2cc(Nc3cccc(O)c3)nc(-c3ccccc3)n2)cc1`
-0.22

====

study system: ABCG2 (Homo sapiens)
test: Inhibition of ABCG2 (unknown origin) expressed in MDCK-II cells assessed as reduction in pheophorbide A efflux measured after 2 hrs by flow cytometry relative to Ko143
Type: cell-based
particulars: MDCK-II cells expressing ABCG2, probe pheophorbide A, read-out: Imax
Label Condition met when Emax at 2 h < 80%; otherwise Condition not met.

// known answers, use as guide
{"columns": ["item smiles", "label class"],
 "data": [
  ["N#Cc1ccc(Nc2cc(NCc3ccccn3)nc(-c3ccccc3)n2)cc1", "Condition not met"],
  ["CNc1cc(Nc2ccc(C#N)cc2)nc(-c2ccccc2)n1", "Condition met"],
  ["CCCCNc1cc(Nc2ccc(C#N)cc2)nc(-c2ccccc2)n1", "Condition met"]
]}

Turning to the following compound.
Please indicate whether the reported Emax at 2 h of `N#Cc1ccc(Nc2cc(Nc3ccccc3O)nc(-c3ccccc3)n2)cc1` is strictly below 80%.
Condition not met
